assay: Acute toxicity in ip dosed mouse; format: organism-based; details: in vivo
Metric name: LD50 (mg/kg)
Kindly provide the numeric value in mg/kg only, without the unit symbol.

Study these solved cases before continuing.
[[record]]
smiles = "Cc1cc(OCCCC[N+](C)(C)Cc2ccc(Br)o2)c(C(C)C)cc1Cl.[Br-]"
reported_value = 25

[[record]]
smiles = "Cc1cc(OCCCCC[N+](C)(C)Cc2ccc([N+](=O)[O-])o2)c(C(C)C)cc1Cl.[Br-]"
reported_value = 50


// query LD50 value for entry "C[N+](C)(CCCCCOc1c(Br)cc(Br)cc1Br)Cc1ccc(Br)o1.[Br-]" 25

Consider the compound shown here: "C[N+](C)(CCCCCCOc1c(Br)cc(Br)cc1Br)Cc1ccc(Br)o1.[Br-]" What is its recorded LD50? 25

Would you mind telling me what LD50 value was observed for "C[N+](C)(CCCCCCOc1c(Br)cc(Br)cc1Br)Cc1ccc([N+](=O)[O-])o1.[Br-]" ? 75

Endpoint output: LD50 of "Cc1cc(OCCCC[N+](C)(C)Cc2ccc([N+](=O)[O-])o2)c(C(C)C)cc1Cl.[Br-]" . Value? 75

Please give the measured LD50 for this compound: "Cc1cc(OCCCCC[N+](C)(C)Cc2ccc(Br)o2)c(C(C)C)cc1Cl.[Br-]" 37.5

Sample "C[N+](C)(CCCCOc1c(Br)cc(Br)cc1Br)Cc1ccc(Br)o1.[Br-]" — what was its LD50? 37.5
